Here the recorded kon is given for each entry.
target: T1, recombinant human CD63 extracellular loop 2 expressed with a C-terminal Myc-Myc-hexahistidine (human); assay: SPR Biacore, mAb captured, 25C
T1 construct: also called hCD63 EC loop 2-MMH; human CD63 EC loop 2-MMH
T1 sequence (chain, as listed by the source limits assumed): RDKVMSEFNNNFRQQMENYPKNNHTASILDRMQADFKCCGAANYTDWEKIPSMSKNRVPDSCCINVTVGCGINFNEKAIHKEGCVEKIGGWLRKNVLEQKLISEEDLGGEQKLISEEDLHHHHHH
State the answer as a number, implicitly in M⁻¹ s⁻¹.

Past entries and their recorded results:
[[record]]
binder = "H2M12387N (antibody, V domains shown, also called H2aM12387N) VH: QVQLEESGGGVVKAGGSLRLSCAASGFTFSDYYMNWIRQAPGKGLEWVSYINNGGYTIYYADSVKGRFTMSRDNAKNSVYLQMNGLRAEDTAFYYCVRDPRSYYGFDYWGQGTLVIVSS VL: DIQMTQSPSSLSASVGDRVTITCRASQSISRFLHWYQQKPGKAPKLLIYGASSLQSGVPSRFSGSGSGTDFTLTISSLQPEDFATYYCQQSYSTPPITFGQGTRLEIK"
units_label = "M⁻¹ s⁻¹"
quantitative_readout = 543000

[[record]]
binder = "H2M12450N (antibody, V domains shown, also called H2aM12450N; mAb12450) VH: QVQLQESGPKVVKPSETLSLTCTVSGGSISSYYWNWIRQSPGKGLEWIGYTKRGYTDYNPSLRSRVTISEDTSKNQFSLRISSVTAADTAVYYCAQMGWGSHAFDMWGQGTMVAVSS VL: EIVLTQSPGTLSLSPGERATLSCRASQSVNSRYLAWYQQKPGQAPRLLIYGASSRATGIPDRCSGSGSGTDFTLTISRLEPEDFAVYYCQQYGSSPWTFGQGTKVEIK"
units_label = "M⁻¹ s⁻¹"
quantitative_readout = 227000


Pending binder:
Consider the binder shown here: H1M12362N (antibody, V domains shown) VH: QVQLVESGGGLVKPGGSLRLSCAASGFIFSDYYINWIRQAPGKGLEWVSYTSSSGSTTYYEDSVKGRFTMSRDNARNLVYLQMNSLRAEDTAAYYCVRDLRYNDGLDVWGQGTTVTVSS VL: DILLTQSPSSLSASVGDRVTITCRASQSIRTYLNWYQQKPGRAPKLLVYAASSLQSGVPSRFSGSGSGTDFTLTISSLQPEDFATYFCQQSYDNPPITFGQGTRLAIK What is its recorded kon?
113000
